For each entry below, report its GI50 value.
Test system: HCC 2998
Assay: NCI tumour cell line growth inhibition, 48 h
The source made the active and inactive calls. No stated cut-off is given here; in the data, active = GI50 up to about 1.1 µM and inactive = higher.

For orientation, consider the following solved cases.
>  <molecule>
CCOC(=O)c1c[nH]c(C(=O)C=[N+]=[N-])c1C1CCN(CC)C1=S (configuration not stated)

>  <GI50>
> 100 µM (inactive)

$$$$
>  <molecule>
C=CCO[C@]1(CC=C)C(=O)C(=O)OC1C1COC(C)(C)O1 (some centres not stated)

>  <GI50>
> 100 µM (inactive)

$$$$
>  <molecule>
O=C1c2ccccc2OCC1/C=N/O (configuration not stated)

>  <GI50>
> 100 µM (inactive)

$$$$
>  <molecule>
O=C(O)c1ccc(/C=N\N(CCO)C2=NCCN2)cc1

>  <GI50>
> 100 µM (inactive)

$$$$
>  <molecule>
Cc1cc(N(CCC#N)CCC#N)ccc1/N=N/c1ccc([N+](=O)[O-])cc1

>  <GI50>
> 100 µM (inactive)

$$$$
>  <molecule>
CN(C)C1(N(C)C)Oc2c(c(=O)n(C)c(=O)n2C)C(c2ccc(C(F)(F)F)cc2)C1(F)F (configuration not stated)

>  <GI50>
> 100 µM (inactive)

$$$$

List GI50 for every entry below, keeping the order given.
1. COc1ccc(C2=C(Cl)c3cc(OC)c(OC)cc3C2=O)cc1OC
2. NC(=S)NS(=O)(=O)c1ccc(F)cc1
3. CC1(C)CC(=O)C(=CNC(N)=S)C(=O)C1
4. COc1cccc(NC(=O)CC(=O)N2N=C(C)C(/N=N/c3ccc(S(=O)(=O)CCOS(=O)(=O)O)cc3)C2=O)c1 (configuration not stated)
5. COc1cc(/C=C(/C#N)C(N)=O)ccc1O
6. O=C(NCCNCCO)N/N=C/c1ccc([N+](=O)[O-])cc1

22.6 µM (inactive)
> 100 µM (inactive)
> 100 µM (inactive)
15.5 µM (inactive)
> 60.5 µM (inactive)
> 100 µM (inactive)

----------
Consider the following compounds; for each one, report its GI50.
System: UACC-62
Assay: NCI tumour cell line growth inhibition, 48 h
The source made the active and inactive calls. No stated cut-off is given here; in the data, active = GI50 up to about 1.1 µM and inactive = higher.

Previously resolved entries follow.
>  <compound>
CC1(C23CC4CC(CC(C4)C2)C3)n2c(=O)n(-c3ccccc3)c(=O)n2C1(C)C12CC3CC(CC(C3)C1)C2 (configuration not stated)

>  <GI50>
> 100 µM (inactive)

$$$$
>  <compound>
COc1cccc(C2c3cc4c(cc3OC(N3CCOCC3)C2C)OCO4)c1OC (configuration not stated)

>  <GI50>
15.4 µM (inactive)

$$$$
>  <compound>
O=Cc1ccc2c(c1)CC1(C2)Cc2ccc(C=O)cc2C1

>  <GI50>
6.76 µM (inactive)

$$$$
>  <compound>
CC1CC[C@@]2(OC1)O[C@H]1[C@H](O)[C@H]3[C@@H]4CC[C@H]5C[C@@H](OC6OC(CO)C(OC7OC(CO)C(O)C(OC8OCC(O)C(O)C8O)C7OC7OC(CO)C(O)C(O)C7OC7OC(CO)C(O)C(O)C7O)C(O)C6O)[C@H](O)C[C@]5(C)[C@H]4CC[C@]3(C)[C@H]1[C@@H]2C (some centres not stated)

>  <GI50>
> 10 µM (inactive)

$$$$
>  <compound>
NS(=O)(=O)c1ccc(NC(=O)c2cccc3cc4ccccc4nc23)cc1

>  <GI50>
66.5 µM (inactive)

$$$$

For each entry beneath this line, provide reported GI50.
1. O=C1N2Cc3c4ccc5c3CN3C(=O)N6Cc7c(ccc(c7CN1C6(c1ccccc1)C23c1ccccc1)OCCOCCNCCOCCO4)OCCOCCNCCOCCO5 (configuration not stated)
2. O=C(CCCN1CCC2(CC1)NC(=O)c1ccccc1O2)c1ccc(F)cc1

["42.4 µM (inactive)", "> 100 µM (inactive)"]

Answer for every listed entry: what is its GI50? The entries follow.
1. CC(=O)N(O)Cc1ccccc1
2. O=C(NN1C(=O)CSC1c1ccco1)c1ccncc1 (configuration not stated)
3. CC(C)NC1(C(N)=O)CCN(Cc2ccccc2)CC1
4. NC(=O)C[C@H](NC(=O)C1(NC(=O)[C@H](Cc2ccc(CP(=O)(O)O)cc2)NC(=O)C(=O)O)CCCCC1)C(=O)NCCCc1cccc2ccccc12
5. O=C(O)c1ccc(/C=N\N(CCO)C2=NCCN2)cc1

> 100 µM (inactive)
> 100 µM (inactive)
> 100 µM (inactive)
> 10 µM (inactive)
> 100 µM (inactive)

----------
For each entry below, report its GI50 value.
System: HCC 2998
Assay: NCI tumour cell line growth inhibition, 48 h
The source made the active and inactive calls. No stated cut-off is given here; in the data, active = GI50 up to about 1.1 µM and inactive = higher.

See these solved cases before continuing.
>  <compound>
CCOC(=O)NC(=S)c1ccc(O)c2ccccc12

>  <GI50>
91 µM (inactive)

$$$$
>  <compound>
Cn1cnc(/C=C/C#N)c1

>  <GI50>
> 100 µM (inactive)

$$$$
>  <compound>
Sc1nnc(-c2ccccc2Nc2ccccc2-c2nnc(S)n2-c2ccccc2)n1-c1ccccc1

>  <GI50>
36.6 µM (inactive)

$$$$
>  <compound>
CC(=O)CCn1[nH]c(=O)c(Cl)c(Cl)c1=O

>  <GI50>
> 100 µM (inactive)

$$$$

Parameter requested: GI50. Apply to each item below.
1. CC(=O)OC1CCC2C3CCc4c(C)ccc(OS(=O)(=O)c5ccccc5)c4C3CCC12C (stereo not drawn)
2. O=C(Cn1cc(-c2ccccc2)nn1)NC1CCCC1
3. Cn1ccnc1Sc1ccc(/C=N/NC(=O)c2ccccc2O)cc1[N+](=O)[O-]
4. COc1ccc2nc3n(c2c1)C(c1c(F)cccc1F)SC3 (stereo not drawn)
5. CCOC(=O)CSc1[nH]c2nc(C)nc(Cl)c2c1C#N
6. CC(=O)NNc1nc(C)c(C(/C=C/c2ccccc2O)=N/NC(=O)c2ccncc2)s1
7. C=CCn1c2ccccc2c2c(C)c3cnccc3c(C)c21

["64.9 µM (inactive)", "> 100 µM (inactive)", "96.4 µM (inactive)", "78 µM (inactive)", "> 10 µM (inactive)", "> 100 µM (inactive)", "20.4 µM (inactive)"]

Look up GI50 for the entries below, preserving their order.
1. COc1cc(/C=C2/SC(c3ccccc3)N(c3cc(Cl)ccc3Cl)C2=O)cc(OC)c1OC (stereo not drawn)
2. Cn1c(=O)c2nc3c4ccccc4c(=O)n(C)c3nc2n(C)c1=O

> 100 µM (inactive)
> 100 µM (inactive)

----------
Tested on: DU-145
Assay: NCI tumour cell line growth inhibition, 48 h
Active and inactive are the calls of the source. Rule as the data show it: active = GI50 up to about 1.1 µM and inactive = higher.
parameter_measured: GI50

Record GI50 per entry; entries follow.
1. O=C(O)Cc1ccc(Oc2nc3ccccc3nc2C(=O)O)cc1
2. COc1ccc2nccc(SCC(=O)O)c2c1
3. CCOC(=O)/C(=C\NCc1ccc2c(c1)OCO2)c1nc2ccccc2[nH]1

["> 100 µM (inactive)", "> 100 µM (inactive)", "> 100 µM (inactive)"]

----------
Tested on: XF498
Experiment: NCI tumour cell line growth inhibition, 48 h
Calls of active or inactive are those of the source. Rule as the data show it: active = GI50 up to about 1.1 µM and inactive = higher.
parameter_measured: GI50

The examples below pair each entry with its known result.
>  <molecule>
NC(=S)N/N=C(\CC1OC(=O)c2ccccc21)c1ccc(Cl)cc1 (stereo unspecified)

>  <parameter_measured>
GI50

>  <test_result>
47 µM (inactive)

$$$$
>  <molecule>
C=CC1(C)/C(=N\O)C(C)(CC)C(=O)N1O (stereo unspecified)

>  <parameter_measured>
GI50

>  <test_result>
> 100 µM (inactive)

$$$$
>  <molecule>
COc1cc2c(cc1OC)C1Cc3sccc3CN1CC2 (stereo unspecified)

>  <parameter_measured>
GI50

>  <test_result>
> 100 µM (inactive)

$$$$
>  <molecule>
COc1cc(/C=C(/C#N)C(N)=O)ccc1O

>  <parameter_measured>
GI50

>  <test_result>
> 100 µM (inactive)

$$$$
>  <molecule>
NC(=O)CCC(N=C(N)c1csc(C2OC(CO)C(O)C2O)n1)C(=O)O (stereo unspecified)

>  <parameter_measured>
GI50

>  <test_result>
> 100 µM (inactive)

$$$$

Kindly consider the entry below.
Which value of GI50 has been reported for NC1(C(=O)O)CCC(C(=O)O)CC1 (stereo unspecified) in the records? > 100 µM (inactive)

----------
System: UACC-62
Test: NCI tumour cell line growth inhibition, 48 h
Active and inactive are the calls of the source. Rule as the data show it: active = GI50 up to about 1.1 µM and inactive = higher.
Answer each item with its documented GI50.

Would you mind listing GI50 for each of the following compounds?
1. CO[C@]12CC(=O)C3(C(C[C@H]4CC5CCC6=CC(=O)CC[C@]6(OC(C)=O)C5C[C@@]43C)C1)C1C[C@H]3[C@@H]4CCC5=CC(=O)CC[C@]5(OC(C)=O)[C@H]4CC[C@]3(C)C12 (stereo partly specified)
2. Cc1ccc(Oc2cc(C)ccc2P(=O)(O)O)cc1
3. CN1N=C(c2ccncc2)OC1c1ccccc1F (stereo unspecified)
4. O=P(O)(O)C=C=C1CCCCC1

["> 100 µM (inactive)", "> 100 µM (inactive)", "> 100 µM (inactive)", "> 100 µM (inactive)"]

Would you mind listing GI50 for each of the following compounds?
1. O=[N+]([O-])c1ccc2c(Nc3ccccc3-c3ccccc3Nc3c4ccccc4nc4cc([N+](=O)[O-])ccc34)c3ccccc3nc2c1
2. CC(=O)CCn1[nH]c(=O)c(Cl)c(Cl)c1=O
3. O=c1c(Cc2ccc(Cc3c(O)oc4ccccc4c3=O)cc2)c(O)oc2ccccc12
4. COc1cc2c(cc1-c1coc3cc(OCC=C(C)C)ccc3c1=O)OCO2
5. Cc1nc2c(n1Cc1ccc(F)cc1)C(=O)c1ccccc1C2=O
6. c1ccc2c(c1)ccc1nc(-c3ccc4c(c3)OCO4)c3c(c12)CCC3
7. O=C(O)c1ccc(Nc2nc3ccccc3nc2C(=O)O)cc1
8. CCOC(=O)c1c(N2CCCC2)nsc1Nc1ccc(F)cc1

1: 3.16 µM (inactive); 2: > 100 µM (inactive); 3: > 100 µM (inactive); 4: 25.6 µM (inactive); 5: 5.25 µM (inactive); 6: > 100 µM (inactive); 7: > 100 µM (inactive); 8: 45.4 µM (inactive)

Numbers sourced from ChEMBL document CHEMBL1201862.
